Provide the reported selectivity ratio of each item.
System: ABCG2
Experiment: Therapeutic ratio of IG50 for growth inhibition of human HEK293 cells to IC50 for inhibition of human ABCG2 expressed in human HEK293 cells
Assay type: toxicity, cell-based

1) COc1cccc(CCn2c3c(c4c(OCCCCCCOc5cccc6c5c5c(n6CCc6cccc(OC)c6)-c6ccccc6C5=O)cccc42)C(=O)c2ccccc2-3)c1 | ≥ 70000

Would you be so kind as to report selectivity ratio for each listed record?
1. COc1cccc(CCn2c3c(c4c(OCCOc5cccc6c5c5c(n6CCc6cccc(OC)c6)-c6ccccc6C5=O)cccc42)C(=O)c2ccccc2-3)c1
2. COc1cccc(CCn2c3c(c4c(OCCCCCCCCOc5ccc6c(c5)-c5c(c7c(n5CCc5ccccc5)CC(C)CC7=O)C6=O)cccc42)C(=O)c2ccccc2-3)c1 (stereo not drawn)

Reply:
≥ 2630
> 52
